# Test system: NCI-H522
# Experimental Protocol: Cytotoxicity against human NCI-H522 cells assessed as cell growth at 10 uM
# Type: functional
# Particulars: Homo sapiens, NCI-H522; read-out: Activity
The reader will find reported growth at 10 µM values listed item by item below.

Smiles Structure: Cc1cc(-c2cccnc2)nc(NC(=O)c2cccc(C(F)(F)F)c2)n1
growth at 10 µM (%): 91.9
//
Smiles Structure: FC(F)(F)c1cc(Nc2nccc(-c3ccc(-c4ccccc4)nc3)n2)cc(C(F)(F)F)c1
growth at 10 µM (%): 83.3
//
Smiles Structure: Cc1ccc(Nc2nc(C)cc(-c3cccnc3)n2)c(C)c1
growth at 10 µM (%): 90.6
//
Smiles Structure: FC(F)(F)c1cc(Nc2nccc(-c3ccc(Nc4ccccc4)nc3)n2)cc(C(F)(F)F)c1
growth at 10 µM (%): 96.5
//
Smiles Structure: CC(=O)c1ccccc1-c1ccc(-c2ccnc(NC(=O)Nc3cc(C(F)(F)F)cc(C(F)(F)F)c3)n2)cn1
growth at 10 µM (%): 90.1

###

# Tested on: IGROV-1
# Experimental Protocol: Growth inhibition of human IGROV1 cells after 48 hrs by sulforhodamine B assay
# Type: functional, cell-based
# Particulars: IGROV-1, 48 h
Entries and their IC50

Smiles Structure: CC(=O)c1ccccc1-c1ccc(-c2ccnc(NC(=O)Nc3cc(N4CCOCC4)cc(C(F)(F)F)c3)n2)cn1
IC50, µM: 6.18
//
Smiles Structure: CC(=O)Nc1cccc(-c2ccc(-c3ccnc(NC(=O)Nc4cc(C(F)(F)F)cc(C(F)(F)F)c4)n3)cn2)c1.Cl
IC50, µM: 2.68

###

Measured pIC50 accompanies every entry in the list below.
# Test system: SNB-75
# Experimental Protocol: Growth inhibition of human SNB75 cells after 48 hrs by sulforhodamine B assay
# Format: functional, cell-based
# Particulars: Homo sapiens, SNB-75, 48 h
pIC50: −log10 of the molar value.
Property Measured: pIC50

Smiles Structure: CC(=O)Nc1cccc(-c2ccc(-c3ccnc(NC(=O)Nc4cc(C(F)(F)F)cc(C(F)(F)F)c4)n3)cn2)c1.Cl
Recorded Result: 4.96

Smiles Structure: CC(=O)c1ccccc1-c1ccc(-c2ccnc(NC(=O)Nc3cc(N4CCOCC4)cc(C(F)(F)F)c3)n2)cn1
Recorded Result: 5.27

###

# Test system: UACC-62
# Experimental Protocol: Cytotoxicity against human UACC62 cells assessed as cell growth at 10 uM
# Assay type: functional
# Particulars: Homo sapiens, UACC-62; read-out: Activity

Smiles Structure: c1ccc(-c2ccc(-c3ccnc(Nc4ccc(N(c5ccccc5)c5ccccc5)cc4)n3)cn2)cc1
Unit Label: %
growth at 10 µM: 96.9
//
Smiles Structure: Cc1ccc(Nc2nc(C)cc(-c3cccnc3)n2)c(C)c1
Unit Label: %
growth at 10 µM: 82.4
//
Smiles Structure: CC(=O)Nc1cccc(-c2ccc(-c3ccnc(NC(=O)Nc4cc(C(F)(F)F)cc(C(F)(F)F)c4)n3)cn2)c1.Cl
Unit Label: %
growth at 10 µM: 46.6
//
Smiles Structure: CC(=O)c1ccccc1-c1ccc(-c2ccnc(NC(=O)Nc3cc(C(F)(F)F)cc(C(F)(F)F)c3)n2)cn1.Cl
Unit Label: %
growth at 10 µM: 94.3
//
Smiles Structure: O=C(Nc1cc(C(F)(F)F)cc(C(F)(F)F)c1)Nc1nccc(-c2ccc(Nc3ccccc3)nc2)n1
Unit Label: %
growth at 10 µM: 101
//
Smiles Structure: FC(F)(F)c1cc(Nc2nccc(-c3cccnc3)n2)cc(C(F)(F)F)c1
Unit Label: %
growth at 10 µM: 102
//
Smiles Structure: CC(=O)c1ccccc1-c1ccc(-c2ccnc(NC(=O)Nc3cc(N4CCOCC4)cc(C(F)(F)F)c3)n2)cn1
Unit Label: %
growth at 10 µM: 76
//
Smiles Structure: FC(F)(F)c1cc(Nc2nccc(-c3ccc(-c4ccccc4)nc3)n2)cc(C(F)(F)F)c1
Unit Label: %
growth at 10 µM: 85.3
//
Smiles Structure: FC(F)(F)c1cc(Nc2nccc(-c3ccc(Nc4ccccc4)nc3)n2)cc(C(F)(F)F)c1
Unit Label: %
growth at 10 µM: 99.1
//
Smiles Structure: CC(=O)c1ccc(-c2ccc(-c3ccnc(Nc4cc(C(F)(F)F)cc(C(F)(F)F)c4)n3)cn2)cc1
Unit Label: %
growth at 10 µM: 104
//
Smiles Structure: Cc1cc(-c2cccnc2)nc(NC(=O)c2cccc(C(F)(F)F)c2)n1
Unit Label: %
growth at 10 µM: 92.3
